- TEST: Concentration-time profiles after a single dose of capsules
- Parameters: species or system human cancer patients
- CONDITION CONTEXT: human, in vivo, oral, 10 mg, capsules of example 95A, 10 mg dose, Day 35

{"SUBSTANCE SMILES": "COc1cc(F)c(F)c(Nc2ccc(I)cc2F)c1NS(=O)(=O)C1(C[C@H](O)CO)CC1", "RESULT UNIT": "ng/mL", "Cmax": 1.57}

----------
- TEST: Concentration-time profiles after a single dose of capsules
- Design: species or system human cancer patients
- CONDITION CONTEXT: human, in vivo, oral; capsules of example 95A, 20 mg dose, Day 35
EXPERIMENTAL READOUT: AUC (µg·h/mL)

{"COMPOUND": "COc1cc(F)c(F)c(Nc2ccc(I)cc2F)c1NS(=O)(=O)C1(C[C@H](O)CO)CC1 [Compound A]", "QUANTITATIVE READOUT": 0.0295}

----------
Each item that follows carries a reported pEC50.
- Tested on: phosphorylated ERK in MDA-MB-231 breast cancer cells
- TEST: Generation of EC50 data: Western blotting for phosphorylated ERK in EGF-stimulated cells
- Format: cell-based
- CONDITION CONTEXT: Homo sapiens; EC50 classes per legend (pERK, MDA-MB-231 cells); classes D and F also cite IC50
pEC50: −log10 of the molar value.
EXPERIMENTAL READOUT: pEC50

{"COMPOUND": "COc1cc(F)c(F)c(Nc2ccc(I)cc2F)c1NS(=O)(=O)C1(CC(CO)CO)CC1 [Example 1028]", "RESULT": "> 8.70"}
{"COMPOUND": "CCCCS(=O)(=O)Nc1ccc(F)c(F)c1Nc1ccc(I)cc1F [Example 1003]", "RESULT": "7.00 to 7.82"}
{"COMPOUND": "COc1cc(F)c(F)c(Nc2ccc(I)cc2F)c1NS(=O)(=O)C1CCC1 [Example 1025]", "RESULT": "7.82 to 8.70"}
{"COMPOUND": "O=S(=O)(Nc1ccc(F)c(F)c1Nc1ccc(I)cc1F)c1ccsc1 [Example 1016]", "RESULT": "7.00 to 7.82"}
{"COMPOUND": "O=S(=O)(Nc1ccc(F)c(F)c1Nc1ccc(I)cc1F)c1cccs1 [Example 1005]", "RESULT": "7.00 to 7.82"}
{"COMPOUND": "CCc1cc(F)c(F)c(Nc2ccc(I)cc2F)c1NS(=O)(=O)C1(CC(O)CO)CC1 (stereo not drawn) [Example 1029]", "RESULT": "7.00 to 7.82"}
{"COMPOUND": "COc1cc(F)c(F)c(Nc2ccc(C)cc2C)c1NS(C)(=O)=O [Example 1010]", "RESULT": "> 8.70"}
{"COMPOUND": "O=S(=O)(Nc1ccc(F)c(F)c1Nc1ccc(I)cc1F)C1CCCC1 [Example 1007]", "RESULT": "7.00 to 7.82"}
{"COMPOUND": "CS(=O)(=O)Nc1ccc(F)c(F)c1Nc1ccc(I)cc1F [Example 1000]", "RESULT": "> 8.70"}

----------
- Test system: human tumor cell lines
- TEST: In vitro cancer screen (SRB; GI50, TGI, LC50)
- CONDITION CONTEXT: read-out: LC50; MDA-MB-435 (Breast Cancer)
EXPERIMENTAL READOUT: CC50 (µM)

{"SUBSTANCE SMILES": "COc1cc(F)c(F)c(Nc2ccc(I)cc2F)c1NS(=O)(=O)C1(C[C@H](O)CO)CC1", "QUANTITATIVE READOUT": 41.7}
